- tested.target: T1, recombinant human TfR1 (transferrin receptor 1) (human, UniProt P02786 89-760)
- T1 construct: Bought recombinant His-tagged protein; also called hTfR1
- T1 sequence (P02786 89-760 limits assumed): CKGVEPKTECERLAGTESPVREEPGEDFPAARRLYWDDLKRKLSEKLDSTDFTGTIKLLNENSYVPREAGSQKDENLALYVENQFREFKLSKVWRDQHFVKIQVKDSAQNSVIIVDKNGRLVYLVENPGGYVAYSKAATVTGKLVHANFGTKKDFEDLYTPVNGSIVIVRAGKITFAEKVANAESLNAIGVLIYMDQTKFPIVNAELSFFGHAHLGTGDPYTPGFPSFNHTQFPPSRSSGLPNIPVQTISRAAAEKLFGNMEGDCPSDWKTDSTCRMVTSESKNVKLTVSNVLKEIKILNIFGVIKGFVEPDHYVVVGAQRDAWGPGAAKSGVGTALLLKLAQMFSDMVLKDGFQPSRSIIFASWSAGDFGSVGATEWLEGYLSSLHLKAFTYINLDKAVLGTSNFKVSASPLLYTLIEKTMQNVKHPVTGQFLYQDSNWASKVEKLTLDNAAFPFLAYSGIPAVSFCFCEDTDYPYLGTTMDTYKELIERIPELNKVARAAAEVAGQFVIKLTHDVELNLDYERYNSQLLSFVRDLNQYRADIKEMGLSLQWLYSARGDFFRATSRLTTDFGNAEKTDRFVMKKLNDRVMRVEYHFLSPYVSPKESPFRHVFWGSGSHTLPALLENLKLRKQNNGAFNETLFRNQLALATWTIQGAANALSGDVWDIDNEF
- assay.notes: SPR (Biacore), single-cycle kinetics, His-tagged TfR1 captured, VNAR-Fc injected
Parameter kon: see the listing below.

| binder | unit.tag | kon |
| --- | --- | --- |
| Clone 10 VNAR-Fc fusion protein (Fc fusion, Bivalent VNAR-Fc; also called clone 10-Fc; Clone 10-hFc; not shown: glycine/serine linker (GxSx)n extending the hinge; human IgG1 Fc (hinge, CH2, CH3) of pFUSE-hIgG1e3-Fc2; G236 also deleted) ARVDQTPQTITKETGESLTINCVLRDSNCALSSTYWYRKKSGSTNEENISKGGRYVETVNSGSKSFSLRINDLTVEDSGTYRCNVVQYPSYNNYFWCDVYGDGTAVTVNA | M⁻¹ s⁻¹ | 306000 |
| Clone 39 VNAR-Fc fusion protein (Fc fusion, Bivalent VNAR-Fc; not shown: glycine/serine linker (GxSx)n extending the hinge; human IgG1 Fc (hinge, CH2, CH3) of pFUSE-hIgG1e3-Fc2; G236 also deleted) ARVDQTPQTITKETGESLTINCVLRDSNCALSSTLWYRTKSGSRNEESISKGGRYVETVNSGSKSFSLKINDLTVEDSGTYRCNVQGMVYDGSSFWWCDVYGDSTAVTVNA | M⁻¹ s⁻¹ | 94700 |
| Clone 2 VNAR-Fc fusion protein (Fc fusion, Bivalent VNAR-Fc; not shown: glycine/serine linker (GxSx)n extending the hinge; human IgG1 Fc (hinge, CH2, CH3) of pFUSE-hIgG1e3-Fc2; G236 also deleted) ARVDQTPQTITKETGESLTINCVLRDNNCALSTTYWYRKKSGSTNEENISKGGRYVETVNSGSKSFSLKINDLTVEDSGTYRCNVFGVDNGWWCDVYGGGTVVTVNA | M⁻¹ s⁻¹ | 190000 |
| Clone 1 VNAR-Fc fusion protein (Fc fusion, Bivalent VNAR-Fc; also called clone 1-Fc; not shown: glycine/serine linker (GxSx)n extending the hinge; human IgG1 Fc (hinge, CH2, CH3) of pFUSE-hIgG1e3-Fc2; G236 also deleted) ARVDQTPQTITKETGESLTINCVLRDNNCALSTTYWYRKKSGSTNEENISKGGRYVETVNSGSKSFSLKINDLTVEDSGTYRCNVRDVQACGNDWVWLDVYGGGTVVTVNA | M⁻¹ s⁻¹ | 66000 |
